Assay: in vitro
Conditions: human, microsomes
recorded_endpoint: microsomal CLint (µL/min/mg)

Before answering, review these 2 worked examples.
compound | recorded_endpoint | reading
COc1ccc(-c2nnc(C(=O)N3CC(Oc4ccc(CN5CCC(C)(O)C5)cc4)C3)o2)cc1 (centres undefined) | microsomal CLint | 2.8
COc1ccc(-c2nnc(C(=O)N3CC(Oc4ccc(CN5CC6(CCOC6)C5)cc4)C3)o2)cc1 | microsomal CLint | 14

A. COc1ccc(-c2nnc(C(=O)N3CCC(Oc4ccc(CN5CCCC5)cn4)CC3)o2)cc1
B. COc1ccc(-c2nnc(C(=O)N3CC(Oc4ccc(CN5CCCOCC5)cc4)C3)o2)cc1
C. O=C(c1nnc(-c2ccccc2)o1)N1CC(Oc2ccc(CN3CC4(CCCO4)C3)cc2)C1
D. O=C(c1nnc(-c2ccccc2Cl)o1)N1CCC(Oc2ccc(CN3CCCC3)cc2)CC1
Put the compounds in ascending order of microsomal CLint. Labels, ranked as asked.
C, D, A, B

A. COc1ccc(-c2nnc(C(=O)N3CC(Oc4ccc(CN(C)C)c(C)c4)C3)o2)cc1
B. COc1ccc(-c2nnc(C(=O)N3CC(Oc4ccc(CN5CC(OC)C5)cc4)C3)o2)cc1
Larger number for microsomal CLint: A , or B ? Please reply using the label of the selected record.
B

I. O=C(c1nnc(-c2ccc(Cl)cc2)o1)N1CCC(Oc2ccc(CN3CCCC3)cc2)CC1
II. COc1ccc(-c2nnc(C(=O)N3CC(Oc4ccc(CN5CCOCC5)c(OC)c4)C3)o2)cc1
III. COc1ccc(-c2nnc(C(=O)N3CC(Oc4ccc(CN5CCN(C)CC5)c(F)c4)C3)o2)cc1
IV. O=C(c1nnc(-c2ccccc2)o1)N1CC(Oc2ccc(CN3CC4(CCOC4)C3)cc2)C1
V. Cn1nc(C(=O)N2CCC(Oc3ccc(CN4CCCC4)cc3)CC2)cc1-c1ccccc1
Exam item: list the entries in increasing order of microsomal CLint. Record the ranking as a list of labels in the requested order.
IV, V, I, III, II

The measured values listed here are drawn from ChEMBL document CHEMBL3784951.
